Give measured cytotoxicity for each item. Keep answers brief.
Tested on: Jurkat
Experiment: cytotoxicity relative to DMSO, 18 h (ratio); higher = less cell death (drugs called cytotoxic fall below 1)
Conditions: 10000 nM

>  <Compound>
Nc1ccccc1NC(=O)c1ccc(CNC(=O)OCc2cccnc2)cc1

>  <Assay Target>
Jurkat

>  <cytotoxicity>
1.01

$$$$
>  <Compound>
Cc1nc(NC(=O)N2CCCC2C(N)=O)sc1-c1ccnc(C(C)(C)C(F)(F)F)c1 (centres undefined)

>  <Assay Target>
Jurkat

>  <cytotoxicity>
0.881

$$$$
>  <Compound>
O=P1(N(CCCl)CCCl)NCCCO1 (centres undefined) [Cyclophosphamide]

>  <Assay Target>
Jurkat

>  <cytotoxicity>
0.977

$$$$

Field: next compound
**Query** Item CCN(CC)Cc1ccc2cc(COC(=O)Nc3ccc(C(=O)NO)cc3)ccc2c1 has what recorded cytotoxicity?
**Result** 1.04

* * *

Tested on: Jurkat
Test: cytotoxicity relative to DMSO, 18 h (ratio); higher = less cell death (drugs called cytotoxic fall below 1)
Conditions: 10000 nM
Give cytotoxicity for every item shown.
Give bare numbers.

Previously resolved entries follow.
>  <Compound>
Cc1cc(C(C)Nc2ccccc2C(=O)O)c2nc(N3CCOCC3)cc(=O)n2c1 (configuration not stated)

>  <cytotoxicity>
0.946

$$$$
>  <Compound>
COc1ccc(F)c(F)c1C(=O)c1cnc(NC2CCN(S(C)(=O)=O)CC2)nc1N

>  <cytotoxicity>
1.04

$$$$
>  <Compound>
CC(=O)c1c(C)c2cnc(Nc3ccc(N4CCNCC4)cn3)nc2n(C2CCCC2)c1=O

>  <cytotoxicity>
0.793

$$$$
>  <Compound>
Nc1nc2cc(CCC3CC(n4ccc5c(N)ncnc54)C(O)C3O)ccc2cc1Br (configuration not stated)

>  <cytotoxicity>
0.982

$$$$

Need cytotoxicity for each of these compounds.
1. CCC(C)(Nc1ccnc(-c2c[nH]c3ncccc23)n1)C(=O)NCC(F)(F)F (configuration not stated)
2. COc1cc(OC)c2c(=O)[nH]c(-c3cc(C)c(OCCO)c(C)c3)nc2c1
3. CC(C)CC(NC(=O)C(CCc1ccccc1)NC(=O)CN1CCOCC1)C(=O)NC(Cc1ccccc1)C(=O)NC(CC(C)C)C(=O)C1(C)CO1 (configuration not stated)

**Result**
[1.03, 1.01, 0.543]

* * *

System: Jurkat
Experiment: cytotoxicity relative to DMSO, 18 h (ratio); higher = less cell death (drugs called cytotoxic fall below 1)
Conditions: 10000 nM
The threshold is inclusive: cytotoxicity of exactly 0.9 counts as True; values below receive False.

>  <Compound>
Nc1cc(C(F)(F)F)c(-c2cc(N3CCOCC3)nc(N3CCOCC3)n2)cn1 [Buparlisib]

>  <Class Label>
False

$$$$
>  <Compound>
O=C1CCC(N2Cc3c(OCc4ccc(CN5CCOCC5)cc4)cccc3C2=O)C(=O)N1 (stereo unspecified) [Iberdomide]

>  <Class Label>
False

$$$$
>  <Compound>
Cn1cc(-c2ccc(S(=O)(=O)n3ccc(C=CC(=O)Nc4ccccc4N)c3)cc2)cn1 [Domatinostat]

>  <Class Label>
False

$$$$
>  <Compound>
CC(=O)Nc1ccc(C(=O)Nc2ccccc2N)cc1 [Tacedinaline]

>  <Class Label>
True

$$$$
>  <Compound>
CCS(=O)(=O)N1CC(CC#N)(n2cc(-c3ncnc4[nH]ccc34)cn2)C1 [Baricitinib]

>  <Class Label>
False

$$$$
>  <Compound>
COc1ccc(Cn2ccc3ccc(C(=O)NO)cc32)cc1

>  <Class Label>
True

$$$$
>  <Compound>
Cc1cc(C)cc(C(=O)NOCCCCCC(=O)NO)c1 [LMK235]

>  <Class Label>
True

$$$$
>  <Compound>
CN(C)C(=O)c1cc2cnc(Nc3ccc(N4CCNCC4)cn3)nc2n1C1CCCC1 [Ribociclib]

>  <Class Label>
True

$$$$
>  <Compound>
Nc1cccc2c1C(=O)N(C1CCC(=O)NC1=O)C2=O (stereo unspecified) [Pomalidomide]

>  <Class Label>
True

$$$$
>  <Compound>
O=C1NC(=O)C(=Cc2ccc3nccc(-c4ccncc4)c3c2)S1

>  <Class Label>
False

$$$$

**Query** Form field: cytotoxicity at least 0.9? Entry: CC1CCN(C(=O)CC#N)CC1N(C)c1ncnc2[nH]ccc12 (stereo unspecified) [Tofacitinib]
**Result** False

**Query** Record CCC1(O)CC2CN(CCc3c([nH]c4ccccc34)C(C(=O)OC)(c3cc4c(cc3OC)N(C=O)C3C(O)(C(=O)OC)C(OC(C)=O)C5(CC)C=CCN6CCC43C65)C2)C1 (stereo unspecified) [Vincristine] ; criterion: cytotoxicity no lower than 0.9. Met?
**Result** False

**Query** Assess whether reported cytotoxicity for CCc1cnn2c(NCc3ccc[n+]([O-])c3)cc(N3CCCCC3CCO)nc12 (stereo unspecified) [Dinaciclib] sits at 0.9 or higher.
**Result** True

**Query** Answer whether cytotoxicity of CC(Nc1cc(F)cc(F)c1)c1cc(C(=O)N(C)C)cc2c(=O)cc(N3CCOCC3)oc12 (stereo unspecified) [AZD-8186] is greater than or equal to 0.9.
**Result** False

**Query** Form field: cytotoxicity at least 0.9? Entry: Cc1c2oc3c(C)ccc(C(=O)NC4C(=O)NC(C(C)C)C(=O)N5CCCC5C(=O)N(C)CC(=O)N(C)C(C(C)C)C(=O)OC4C)c3nc-2c(C(=O)NC2C(=O)NC(C(C)C)C(=O)N3CCCC3C(=O)N(C)CC(=O)N(C)C(C(C)C)C(=O)OC2C)c(N)c1=O (stereo unspecified) [Actinomycin D]
**Result** False

**Query** Textbook exercise: given the entry CN1CC=CCCOc2cccc(c2)-c2ccnc(n2)Nc2cccc(c2)C1 [Zotiraciclib] , state whether its cytotoxicity is greater than or equal to 0.9.
**Result** False

**Query** Determine whether this compound has cytotoxicity no lower than 0.9: Nc1ccccc1NC(=O)c1ccc(CNc2nccc(-c3cccnc3)n2)cc1 [Mocetinostat]
**Result** False

**Query** Assess whether reported cytotoxicity for CCN(c1cc(-c2ccc(CN3CCOCC3)cc2)cc(C(=O)NCc2c(C)cc(C)[nH]c2=O)c1C)C1CCOCC1 [Tazemetostat] sits at 0.9 or higher.
**Result** True

**Query** Please check the record Cc1ncsc1-c1ccc(CNC(=O)C2CC(O)CN2C(=O)C(N)C(C)(C)C)cc1 (stereo unspecified) [VHL ligand 1] and state if its cytotoxicity is at or above 0.9.
**Result** True
